Source listed as PubChem BioAssay (NCI).

# Test system: HCC-2998 colon
# methodNotes: NCI tumour cell line growth inhibition, 48 h
reportedMetric: TGI

[[record]]
compound = "COc1cc2c(cc1OS(C)(=O)=O)N=C[C@@H]1CCCN1C2=O"
resultvalue = "> 100 µM"

[[record]]
compound = "CC(C)(CN1CCCCC1)C(=O)/C=C/c1ccccc1"
resultvalue = "27.9 µM"

[[record]]
compound = "COC(=O)c1cc2ccc(O)c(O)c2cn1"
resultvalue = "> 100 µM"

[[record]]
compound = "O=C1C=C(Nc2ccccc2)c2ccccc2C1=O"
resultvalue = "4.62 µM"

[[record]]
compound = "Clc1ccc(OCC2NC3CCC2CC3)cn1 (stereo not drawn)"
resultvalue = "32.5 µM"

[[record]]
compound = "NS(=O)(=O)c1ccc(N(/C=C/C(=O)C(F)(F)F)CC(=O)c2ccc(F)cc2)cc1"
resultvalue = "33.8 µM"

[[record]]
compound = "Cc1c(Cl)cccc1C(=O)Nc1nc2c(s1)CN(C(=O)Nc1cccc(C(F)(F)F)c1)CC2"
resultvalue = "8.52 µM"

[[record]]
compound = "O=[N+]([O-])c1ccc(C2=NCCO2)cc1"
resultvalue = "> 100 µM"

